Known cytotoxicity at 70.5 h of a selection of compounds
Assay: Human HepG2 cell viability assay in 384 well format
Type: toxicity, cell-based
Design: dose 125 nL, time 70.5 hour; concentration not given beside the values
Conditions: HepG2 cells, read-out: Inhibition
Express your answer in %, writing the number without its unit.

Consider the worked cases shown below.
* CC(C)N(CCS(C)(=O)=O)Cc1csc(-c2ccccc2F)n1 | -13.1
* Cc1ccc(-c2nc(CCNC(=O)NC3CCN(C)CC3)co2)cc1 | -4.33
* CC(CNC(=O)c1cn(-c2ccccc2)nn1)Cn1cccn1 (stereo not given) | 13.9

Request: // query cytotoxicity at 70.5 h value for entry "CCN(CC)C(=O)c1ccn(COc2c(Cl)cccc2Cl)n1"
Result: -10.4

Request: How about COc1ccc(C(C)N2CCC(C(=O)NC3CC3)CC2)cc1Cl (stereo not given) ?
Result: -7.15

Request: How about CCN1CCCC(CNC(=O)C2(c3cc(C)cc(C)c3)CCC2)C1 (stereo not given) ?
Result: 28.2

Request: How about "CS(=O)(=O)N1CCO[C@@H]2CCN(C(=O)c3cccs3)CC[C@H]21" ?
Result: 1.12

Request: How about "COCCc1noc(-c2ccc(-c3ccc(N)nc3)nc2)n1" ?
Result: -2.31

Request: How about "Cc1ncsc1C(=O)Nc1cccc(OCC(F)F)n1" ?
Result: -8.57

Request: How about "COc1ccc(OC2CCN(C(=O)[C@@H](N)Cc3c[nH]cn3)CC2)cc1" ?
Result: 1.71

Request: How about Cc1nc(CN2CCCC(N(C)CC3(O)CCCCC3)C2)no1 (stereo not given) ?
Result: 0.0355

Request: How about "c1cc(C2CCN(c3cnccn3)CC2)ccn1" ?
Result: 17.3

Request: How about "N#Cc1cc(Br)ccc1NC1CCN(CC(N)=O)CC1" ?
Result: -2.02

Request: How about COCCc1noc(CN2CCCC2c2noc(C)n2)n1 (stereo not given) ?
Result: -0.394

Request: How about "Cc1cc(C)nc(NCCSc2cnn[nH]2)n1" ?
Result: -2

Request: How about "CC(C)OCCCN(Cc1cnn(C)c1)Cc1ccccn1" ?
Result: 21.5

Request: How about "CN1CC[C@H](N(Cc2ccccc2)Cc2ccccc2)C[C@H](O)C1" ?
Result: 11.2

Request: How about "COc1cccc([C@@H]2CCN(Cc3cn(C)c4ccccc34)C[C@H]2O)c1" ?
Result: -10.7

Request: How about "Cc1cnc2[nH]c(C(F)(F)F)c(CN3CCOCC3)c2c1" ?
Result: 21.8

Request: How about CC(C)(C)S(=O)(=O)CCNC1CSCCc2ccccc21 (stereo not given) ?
Result: 27.7

Request: How about CC(CN1CCOCC1)NC(=O)NCc1ccoc1 (stereo not given) ?
Result: 4.07

Request: How about CC(=O)NC1CCN(c2ncnc3c2c(C)nn3C)C1 (stereo not given) ?
Result: -7.17

Request: How about CN(c1ncnc2ccccc12)C1CCCN(c2cccnn2)C1 (stereo not given) ?
Result: -12.6

Request: How about "COc1ccc(Nc2cc(C)nc(C)n2)cc1N1CCCC1=O" ?
Result: -7.1

Request: How about "COCCN(C)Cc1ccc(OC)c(OC(F)F)c1" ?
Result: -5.27

Reference for the values: ChEMBL document CHEMBL3507680
